So I've got a bunch of compounds here, and I need their pEC50 values.
# Test system: HCV replicon Luc Neo ET
# ASSAY_OVERVIEW: HCV replication inhibition assay (replicon assay, luciferase reporter)
# Assay type: cell-based
# SETTINGS: Hepatitis C virus; Huh-7 cell lines containing HCV replicon Luc Neo ET; 72 hours with compound; 1 % DMSO; firefly luciferase reporter; concentration that produces 50 % of replication inhibition; read-out: EC50 Replicon LucneoET
pEC50: −log10 of the molar value.

# pEC50 (compound: NC(=O)c1ccc(NC(=O)CC2C(=O)N(c3ccccc3)C(=S)N2CCc2ccc(Cl)cc2)cc1 (stereo not drawn) ) is > 5.30

# pEC50 (compound: COc1ccc(NC(=O)CC2C(=O)N(c3ccc(F)cc3)C(=S)N2CCc2ccc(Cl)cc2)nc1 (stereo not drawn) ) is > 6.30

# pEC50 (compound: CN(C)c1ccc(CCN2C(=O)N(c3ccc(F)cc3)C(=O)C2CC(=O)Nc2ccc(N(C)C)cc2)cc1 (stereo not drawn) ) is > 6.30

# pEC50 (compound: CN(C)c1ccc(NC(=O)CC2C(=O)N(c3ccc(F)cc3)C(=O)N2CCc2cccs2)cc1 (stereo not drawn) ) is > 5.30

# pEC50 (compound: COc1ccc(CCN2C(=O)N(c3ccc(F)cc3)C(=O)C2CC(=O)Nc2ccc(N(C)C)c(C)c2)cc1 (stereo not drawn) ) is > 4.52

# pEC50 (compound: COc1ccc(CCN2C(=S)N(c3ccc(F)cc3)C(=O)C2CC(=O)Nc2ccc(O)cc2)cc1 (stereo not drawn) ) is > 6.30

* * *

So I've got a bunch of compounds here, and I need their EC50 values.
# Test system: HCV replicon Luc Neo ET
# ASSAY_OVERVIEW: HCV replication inhibition assay (replicon assay, luciferase reporter)
# Format: cell-based
# SETTINGS: Hepatitis C virus; Huh-7 cell lines containing HCV replicon Luc Neo ET; 72 hours with compound; 1 % DMSO; firefly luciferase reporter; concentration that produces 50 % of replication inhibition; read-out: EC50 Replicon LucneoET

For the compound COc1ccc(CCN2C(=S)N(c3ccccc3)C(=O)C2CC(=O)Nc2ccc(N(C)C)cc2)cc1 (stereo not shown) [Example 51] , the measured EC50 on HCV replicon Luc Neo ET was < 0.5 µM

For the compound COc1ccc(CCN2C(=S)N(c3ccc(F)cc3)C(=O)C2CC(=O)Nc2cnc(OC)nc2)cc1 (stereo not shown) [Example 82] , the measured EC50 on HCV replicon Luc Neo ET was < 5 µM

For the compound COc1ccc(CCN2C(=O)N(c3ccc(F)cc3)C(=O)C2CC(=O)Nc2ccc(N(C)C)cn2)cc1 (stereo not shown) [Example 73] , the measured EC50 on HCV replicon Luc Neo ET was < 0.5 µM

For the compound COc1ccc(CCN2C(=S)N(c3ccc(F)cc3)C(=O)C2CC(=O)Nc2ccc(OC)cn2)cc1 (stereo not shown) [Example 83] , the measured EC50 on HCV replicon Luc Neo ET was < 0.5 µM

* * *

# Test system: HCV replicon Luc Neo ET
# ASSAY_OVERVIEW: HCV replication inhibition assay (replicon assay, luciferase reporter)
# Type: cell-based
# SETTINGS: Hepatitis C virus; Huh-7 cell lines containing HCV replicon Luc Neo ET; 72 hours with compound; 1 % DMSO; firefly luciferase reporter; concentration that produces 50 % of replication inhibition; read-out: EC50 Replicon LucneoET
RESULT_TYPE: EC50

# EC50 (molecule: COc1ccc(NC(=O)CC2C(=O)N(c3ccccc3)C(=S)N2CCc2ccc(Cl)cc2)nc1 (centres unmarked) ) is < 0.5 µM

# EC50 (molecule: Cc1ccc(NC(=O)CC2C(=O)N(c3ccccc3)C(=S)N2CCc2ccc(Cl)cc2)cc1 (centres unmarked) ) is < 5 µM

# EC50 (molecule: CN(C)c1ccc(NC(=O)CC2C(=O)N(c3ccc(F)cc3)C(=S)N2CCc2cccs2)cc1 (centres unmarked) ) is < 0.5 µM

# EC50 (molecule: COc1ccc(CCN2C(=S)N(c3ccccc3)C(=O)C2CC(=O)Nc2ccc(OC)nn2)cc1 (centres unmarked) ) is < 5 µM

# EC50 (molecule: COc1ccc(CCN2C(=O)N(c3ccc(F)cc3)C(=O)C2CC(=O)Nc2ccc(OC)nn2)cc1 (centres unmarked) ) is < 30 µM

# EC50 (molecule: COc1ccc(CCN2C(=S)N(c3ccncc3)C(=O)C2CC(=O)Nc2ccc(OC)cc2)cc1 (centres unmarked) ) is < 5 µM

# EC50 (molecule: COc1ccc(NC(=O)CC2C(=O)N(c3ccccc3)C(=S)N2CCc2ccc(Cl)cc2)cn1 (centres unmarked) ) is < 5 µM

# EC50 (molecule: O=C(CC1C(=O)N(c2ccc(F)cc2)C(=S)N1CCc1ccc(Cl)cc1)Nc1ccc(N2CCOCC2)cc1 (centres unmarked) ) is < 0.5 µM
